Origin of the recorded values: patent US20040146507A1

test.system: T1, human CD11a (human, UniProt P20701 26-1170)
T1 construct: whole, on cells; On Jurkat T-cells or human peripheral blood mononuclear cells, as part of LFA-1; also called CD11a on Jurkat cells; alpha subunit of LFA-1
T1 sequence (P20701 26-1170): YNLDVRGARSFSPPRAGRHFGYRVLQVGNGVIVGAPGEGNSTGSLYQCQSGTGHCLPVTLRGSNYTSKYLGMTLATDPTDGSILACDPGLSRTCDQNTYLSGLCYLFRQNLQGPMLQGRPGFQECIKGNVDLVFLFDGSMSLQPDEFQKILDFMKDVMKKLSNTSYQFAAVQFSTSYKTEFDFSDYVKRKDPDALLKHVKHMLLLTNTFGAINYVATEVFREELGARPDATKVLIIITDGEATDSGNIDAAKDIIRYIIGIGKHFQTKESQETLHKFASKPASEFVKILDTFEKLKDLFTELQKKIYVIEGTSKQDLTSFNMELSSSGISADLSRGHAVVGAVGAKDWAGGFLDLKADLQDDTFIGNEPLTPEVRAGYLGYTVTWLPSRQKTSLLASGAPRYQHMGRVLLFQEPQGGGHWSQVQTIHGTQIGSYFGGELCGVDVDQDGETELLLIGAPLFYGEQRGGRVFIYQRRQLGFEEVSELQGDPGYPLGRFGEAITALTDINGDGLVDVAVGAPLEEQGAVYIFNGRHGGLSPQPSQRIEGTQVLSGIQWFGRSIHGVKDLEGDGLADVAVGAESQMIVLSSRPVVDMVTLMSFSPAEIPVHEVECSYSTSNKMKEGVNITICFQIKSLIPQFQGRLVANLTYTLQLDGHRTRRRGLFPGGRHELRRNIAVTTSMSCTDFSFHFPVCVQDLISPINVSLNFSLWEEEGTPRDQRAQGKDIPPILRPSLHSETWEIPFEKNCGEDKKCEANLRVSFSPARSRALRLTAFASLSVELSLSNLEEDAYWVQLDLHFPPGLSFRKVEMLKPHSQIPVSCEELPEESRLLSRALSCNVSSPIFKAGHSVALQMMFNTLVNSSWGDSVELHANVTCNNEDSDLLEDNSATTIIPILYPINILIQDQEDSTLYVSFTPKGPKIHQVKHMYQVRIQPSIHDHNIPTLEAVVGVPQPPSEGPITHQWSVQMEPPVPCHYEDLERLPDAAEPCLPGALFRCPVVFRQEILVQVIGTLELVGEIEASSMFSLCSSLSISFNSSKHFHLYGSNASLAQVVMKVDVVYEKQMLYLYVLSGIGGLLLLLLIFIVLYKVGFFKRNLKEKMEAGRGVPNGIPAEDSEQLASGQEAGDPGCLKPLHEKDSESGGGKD
assay.protocol: FACScan, Jurkat cells
Recorded EC50 F(ab)/EC50 F(ab)-2 by entry

binder | EC50 F(ab)/EC50 F(ab)-2
humanized MHM24 IgG1 (antibody, V domains shown, F(ab)-8 VL and VH domains fused to human constant light and heavy (IgG1) chains; also called HuIgG1; huMHM24) VH: EVQLVESGGGLVQPGGSLRLSCAASGYSFTGHWMNWVRQAPGKGLEWVGMIHPSDSETRYNQKFKDRFTISVDKSKNTLYLQMNSLRAEDTAVYYCARGIYFYGTTYFDYWGQGTLVTVSS VL: DIQMTQSPSSLSASVGDRVTITCRASKTISKYLAWYQQKPGKAPKLLIYSGSTLQSGVPSRFSGSGSGTDFTLTISSLQPEDFATYYCQQHNEYPLTFGQGTKVEIKR | 0.004 ratio
humanized MHM24 F(ab)-6 (Fab, V domains shown, F(ab) from E. coli) VH: EVQLVESGGGLVQPGGSLRLSCAASGFSFTGHWMNWVRQAPGKGLEWVGMIHPSDSETRYNQKFKDRFTISVDKSSSTLYLQMNSLRAEDTAVYYCARGIYFYGTTYFDYWGQGTLVTVSS VL: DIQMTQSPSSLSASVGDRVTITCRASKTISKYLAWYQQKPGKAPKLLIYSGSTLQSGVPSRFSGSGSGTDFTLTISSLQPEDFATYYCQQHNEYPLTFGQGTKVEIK | 0.012 ratio
humanized MHM24 F(ab)-7 (Fab, V domains shown, F(ab) from E. coli) VH: EVQLVESGGGLVQPGGSLRLSCAASGYSFTGHWMNWVRQAPGKGLEWVGMIHPSDSETRYNQKFKDRFTISVDKSSSTLYLQMNSLRAEDTAVYYCARGIYFYGTTYFDYWGQGTLVTVSS VL: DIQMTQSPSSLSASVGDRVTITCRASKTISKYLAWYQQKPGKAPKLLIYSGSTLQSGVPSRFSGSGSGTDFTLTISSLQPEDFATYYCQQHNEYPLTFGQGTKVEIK | 0.004 ratio
